# Test system: SNB-75 CNS
# Assay summary: NCI-60 one-dose screen, 48 h
# Condition description: 10 µM unless noted
Compounds without any hit were thinned out: in the full panel of roughly 83,000, 20% have a hit. The source made the active and inactive calls. Rule for the calls: active = growth percent below 10; inactive = the rest.
Valid outcomes are listed here; reply with one: 1 (yes) (active), 0 (no) (inactive)

Query :: Test call, this compound: COC(=O)c1ccc(C2Nc3ccc(S(=O)(=O)Nc4ccc(C)c(C)c4)cc3C3OCCC23)cc1 (centres undefined)
Result :: 0 (no)

Query :: Dear colleague, could you share the recorded outcome for `Cc1cccc(Cc2cnc(NC(=O)/C=C/c3ccco3)s2)c1` when you have a moment?
Result :: 0 (no)

Query :: What outcome does the record of this test show for `COc1cc(C(=O)/C=C/c2c(C(F)(F)F)nc3sccn23)cc(OC)c1OC` ?
Result :: 0 (no)

Query :: Could you kindly confirm the outcome this assay logged for `CCCCc1ccc(Nc2ccc(Nc3ccc(CCCC)cc3S(=O)(=O)O)c3c2C(=O)c2ccccc2C3=O)c(S(=O)(=O)O)c1` ?
Result :: 0 (no)

Query :: Check the results log: what was the call for `COc1ccc(C(=NN=C(N)N)c2ccc(OC)cc2)cc1` ?
Result :: 1 (yes)

Query :: Hi, do you know how `CCc1ccccc1-n1c(-c2ccc(Cl)cc2)cc(-c2ccc(Cl)cc2)c(C#N)c1=O` came out in this test?
Result :: 0 (no)

Query :: Assay outcome for `O=c1c2cc(F)ccc2sc2c(NCCCN3CCCC3)nc3ccccc3c12` : what was it?
Result :: 0 (no)

Query :: Outcome? `Cc1ccc(Cl)c(NS(=O)(=O)c2ccc(-c3cnc(C4CC4)o3)cc2)c1`
Result :: 1 (yes)

Query :: // return assay outcome for `COc1cc(-c2nn(-c3ccccc3)cc2-c2ccnc(NCCNS(=O)(=O)c3ccc(Cl)cc3)n2)ccc1Cl`
Result :: 0 (no)

###

Assignment: determine reported growth for the given molecules.
# Tested on: HCT-116 colon
# Assay summary: NCI-60 one-dose screen, 48 h (100 = growth as untreated, 0 = no growth, -100 = all killed)
# Condition description: 10 µM unless noted
Compounds without any hit were thinned out: in the full panel of roughly 83,000, 20% have a hit. Active and inactive are the calls of the source. Rule for the calls: active = growth percent below 10; inactive = the rest.

Query :: Dear colleague, please send me the reported growth for `O=C1Nc2ccccc2/C1=C/c1cn(C(=O)c2ccc(Cl)cc2)c2ccccc12` when you can.
Result :: 91.6% (inactive)

Query :: Return value of growth for input `Cc1ccc2nc(NC(=O)CSc3nc(Nc4ccc([N+](=O)[O-])cc4)c(C#N)c(-c4ccccc4)n3)sc2c1` , no commentary.
Result :: 89.5% (inactive)

Query :: Please report the measured growth for `CCc1ccccc1NC(=O)/C(C#N)=C/c1ccc(OC)cc1`
Result :: 89.1% (inactive)

Query :: Return value of growth for input `CC(C)(C)CC(C)(C)Nc1c(-c2ccncc2)nc2cnccn12` , no commentary.
Result :: 90.1% (inactive)

Query :: Kindly indicate its recorded growth. Item: `COc1cc(C(=O)c2cc(C)c3[nH]c4ccc(Cl)cc4c3c2C)cc(OC)c1OC`
Result :: 3.67% (active)

Query :: Respond only with growth recorded for `COc1ccccc1CNCCCN1C(=O)c2ccc3c4c(ccc(c24)C1=O)C(=O)N(CCCNCCCCN)C3=O`
Result :: -8.71% (active)

Query :: Name the recorded growth of the molecule listed here: `COc1ccc(-c2nc3ccc4[nH]ncc4c3c3c2CCCC3)cc1B(O)O`
Result :: 27% (inactive)

Query :: Retrieve growth measured for `COc1ccc(C(=O)COc2ccc(/C=C3\Oc4ccccc4C3=O)cc2)cc1` and print it.
Result :: 92.9% (inactive)

Query :: Specify growth for `COC(=O)/C=C1\S/C(=N\NS(=O)(=O)c2ccc(C)cc2)N(c2ccccc2)C1=O` and stop.
Result :: 103% (inactive)

Query :: Provide one value: measured growth of `CC(C)(C)c1ccc(/C=C/C(=O)Nc2ccc(O)cc2)cc1`
Result :: 68.1% (inactive)

Query :: Complete the entry with growth for `Cc1cccc(-c2nc(N(C)c3ccc4ncsc4c3)c3ccccc3n2)n1`
Result :: 65.2% (inactive)

Query :: Find the measured growth of `O=c1ssc(Cl)c1-c1ccccc1` and report it.
Result :: 93.5% (inactive)

Query :: For the molecule COc1ccc(C2C(c3nn[nH]n3)=C(N)Oc3c2ccc2ccccc32)cc1 (stereo not drawn) , give its reported growth.
Result :: 55.7% (inactive)

Query :: Provide measured growth value, entry: Cc1c(C(=O)NC(Cc2ccccc2)C(O)C(=O)NCc2ccc(F)cc2)[nH]c2ccccc2c1=O (stereo not drawn)
Result :: 104% (inactive)

Query :: Respond only with growth recorded for `O=C(CCc1nnc(CN(c2ccccc2)c2ccccc2)o1)c1nc2ccccc2[nH]1`
Result :: 73.6% (inactive)

Query :: Entry `c1ccc2cc3nc4cc5ccccc5cc4nc3cc2c1` needs its growth filled in; supply it.
Result :: 72.3% (inactive)

Query :: State its growth: `Cc1ccc(Nc2ccc(Nc3ccc(C)cc3)c3c2C(=O)c2cccc(O)c2C3=O)cc1`
Result :: 99% (inactive)

Query :: Please supply the value of reported growth for the item CC(=O)N1N=C(c2ccc(Nc3nc(Nc4ccc(F)cc4)nc(Nc4ccc(F)cc4)n3)cc2)CC1c1cccc([N+](=O)[O-])c1 (stereo not drawn)
Result :: 92.9% (inactive)
